system: Rif^r APEC O78; assay: In vivo screening of quorum sensing inhibitors in APEC infected broiler chickens; details: vs DMSO treated control
Could you label it condition met if measured Reduction in APEC lesions severity, Air-sacs (%) is 60% or higher, and condition not met otherwise?

Below are worked cases with known answers.
COCCN1CCC(CN(Cc2ccncc2)Cc2ccccc2Cl)CC1 [C1]
condition not met
O=C(CCN1CCN(c2ccccc2F)CC1)Nc1ccc(Br)cc1 [C7]
condition not met

Decide: is the reported value of Reduction in APEC lesions severity, Air-sacs (%) for OCCC1CN(C2CCN(c3ccccc3)CC2)CCN1CCCc1ccccc1 (stereo not shown) [C10] equal to or greater than 60%? condition met

Decide: is the reported value of Reduction in APEC lesions severity, Air-sacs (%) for Cc1ccccc1N1CCN(C2CCCN(C(=O)c3ccc(F)c(Cl)c3)C2)CC1 (stereo not shown) [C2] equal to or greater than 60%? condition met

Decide: is the reported value of Reduction in APEC lesions severity, Air-sacs (%) for CCc1ccccc1Nc1nc(-c2c(C)nc3ccccn23)cs1 [C8] equal to or greater than 60%? condition met

Decide: is the reported value of Reduction in APEC lesions severity, Air-sacs (%) for O=[N+]([O-])c1cccc(S(=O)(=O)Nc2ccc(Br)cc2)c1 [C6] equal to or greater than 60%? condition not met

Decide: is the reported value of Reduction in APEC lesions severity, Air-sacs (%) for Cc1ccc(CN2CCN(CCCc3ccccc3)CC2)cc1 [C5] equal to or greater than 60%? condition met

----------
Answer each item with its documented MBC.
system: APEC O2; type: cell-based, avian pathogenic Escherichia coli (APEC); details: APEC O2, M63 media; MIC/MBC

Solved cases below.
CC1CCCN(CCC(=O)c2ccc(Br)cc2)C1.Cl (stereo not shown) [SM1]
200 µM
CC1CCC(C(C)C)C(OC(=O)Cn2c[n+](CC(=O)OC3CC(C)CCC3C(C)C)c3ccccc32)C1.[Cl-] (stereo not shown) [SM4]
50 µM
CCN1C(=Cc2ccc3ccccc3[n+]2CC)C=Cc2ccccc21.[Cl-] [SM9]
50 µM
CC(=O)OC(C(Br)C(=O)c1ccc([N+](=O)[O-])cc1)C(Cl)(Cl)Cl (stereo not shown) [SM10]
50 µM
COc1cc(CNCCc2ccc(C)cc2)ccc1OCC(O)CN1CCCC1 (stereo not shown) [SM3]
200 µM

Required: MBC, one value per compound below.
1. COc1ccc(CCN(Cc2cc3c(cc2Cl)OCO3)CC2CCN(C)CC2)cc1 [SM11]
2. COc1ccc(CNCc2cccc(C(F)(F)F)c2)cc1OCC(O)CN1CCCC1 (stereo not shown) [SM7]
3. CCCCCCCCCCCCCCCC[n+]1ccn(CC#N)c1 [SM6]
4. CCCCCCCCCCCCCCCCn1c[n+](C)c2ccccc21.[Br-] [SM5]
5. COc1cc(CNCCc2ccc3ccccc3c2)ccc1OCC(O)CN1CCCC1 (stereo not shown) [SM2]

200 µM
50 µM
25 µM
25 µM
250 µM

----------
System: biofilm embedded APEC O78
Assay: MBEC High-throughput assay
Assay type: cell-based, avian pathogenic Escherichia coli (APEC)
Settings: biofilm embedded APEC O78; superscript = multiple of MIC (footnote)
Method: Effect against biofilm embedded APEC. The effect of cidal SMs against biofilm embedded APEC was determined using MBEC High-throughput (HTP) assay (Innovotech Inc., AB, Canada). […] Following incubation, MIC of SMs in challenged plate was recorded. […] Biofilm embedded APEC bacteria were enumerated and minimum biofilm eradication concentration (MBEC) of k; jSMs were determined. […]
Answer each item with its documented MBEC.

Solved cases below.
COc1cc(CNCCc2ccc(C)cc2)ccc1OCC(O)CN1CCCC1 (stereo not shown) [SM3]
50^b µM
CCCCCCCCCCCCCCCC[n+]1ccn(CC#N)c1 [SM6]
12.5^a µM
COc1ccc(CNCc2cccc(C(F)(F)F)c2)cc1OCC(O)CN1CCCC1 (stereo not shown) [SM7]
50^b µM
CC1CCC(C(C)C)C(OC(=O)Cn2c[n+](CC(=O)OC3CC(C)CCC3C(C)C)c3ccccc32)C1.[Cl-] (stereo not shown) [SM4]
25^a µM
COc1ccc(CCN(Cc2cc3c(cc2Cl)OCO3)CC2CCN(C)CC2)cc1 [SM11]
400^d µM
CCN1C(=Cc2ccc3ccccc3[n+]2CC)C=Cc2ccccc21.[Cl-] [SM9]
50^b µM
CC1CCCN(CCC(=O)c2ccc(Br)cc2)C1.Cl (stereo not shown) [SM1]
400^d µM
COc1cc(CNCCc2ccc3ccccc3c2)ccc1OCC(O)CN1CCCC1 (stereo not shown) [SM2]
50^b µM

Required: MBEC, one value per molecule below.
1. CCCCCCCCCCCCCCCCn1c[n+](C)c2ccccc21.[Br-] [SM5]
2. CC(=O)OC(C(Br)C(=O)c1ccc([N+](=O)[O-])cc1)C(Cl)(Cl)Cl (stereo not shown) [SM10]

1. 25^c µM
2. >200 µM

----------
Tested on: APEC O78
Experiment: Confocal microscopy bacterial cytological profiling
Assay type: cell-based, avian pathogenic Escherichia coli (APEC)
Conditions: 2X MBC
Procedure: Confocal and scanning electron microscopy. Confocal microscopy was used for bacterial cytological profiling (BCP) to identify the cellular pathways targeted by SMs as described previously. […] After incubation, treated cultures were centrifuged, washed, and resuspended in 100 μL PBS. […] Cultures were then centrifuged, washed, and resuspended in PBS to 1⁄10th volume of the original cultures.
observable: cytological profile (confocal, FM4-64 / SYTO-9)

Solved cases below.
CC1CCCN(CCC(=O)c2ccc(Br)cc2)C1.Cl (stereo not shown)
PG synthesis inhibitors
COc1ccc(CCN(Cc2cc3c(cc2Cl)OCO3)CC2CCN(C)CC2)cc1
membrane pore formers
CC1CCC(C(C)C)C(OC(=O)Cn2c[n+](CC(=O)OC3CC(C)CCC3C(C)C)c3ccccc32)C1.[Cl-] (stereo not shown)
membrane disruptors
CC(=O)OC(C(Br)C(=O)c1ccc([N+](=O)[O-])cc1)C(Cl)(Cl)Cl (stereo not shown)
PG synthesis inhibitors

Required: cytological profile (confocal, FM4-64 / SYTO-9), one value per compound below.
1. CCCCCCCCCCCCCCCC[n+]1ccn(CC#N)c1
2. COc1ccc(CNCc2cccc(C(F)(F)F)c2)cc1OCC(O)CN1CCCC1 (stereo not shown)
3. CCCCCCCCCCCCCCCCn1c[n+](C)c2ccccc21.[Br-]
4. COc1cc(CNCCc2ccc3ccccc3c2)ccc1OCC(O)CN1CCCC1 (stereo not shown)
5. CCN1C(=Cc2ccc3ccccc3[n+]2CC)C=Cc2ccccc21.[Cl-]

1: membrane disruptors; 2: membrane pore formers; 3: membrane disruptors; 4: membrane pore formers; 5: PG synthesis inhibitors

Measured cytological profile (confocal, FM4-64 / SYTO-9) for this entry COc1cc(CNCCc2ccc(C)cc2)ccc1OCC(O)CN1CCCC1 (stereo not shown) on APEC O78: membrane pore formers

----------
system: AI-2 activity of APEC O1; assay: AI-2 bioluminescence indicator assay (V. harveyi BB170); conditions: APEC O1, 100 µM
// classify: if (Inhibition % of AI-2 activity < 50%) condition met else condition not met

Below are worked cases with known answers.
OCCC1CN(C2CCN(c3ccccc3)CC2)CCN1CCCc1ccccc1 (centres unmarked)
condition not met
Cc1ccc(CN2CCN(CCCc3ccccc3)CC2)cc1
condition met
Cc1ccccc1N1CCN(C2CCCN(C(=O)c3ccc(F)c(Cl)c3)C2)CC1 (centres unmarked)
condition not met
O=C(CCN1CCN(c2ccccc2F)CC1)Nc1ccc(Br)cc1
condition met
Fc1ccc(CN2CCCN(Cc3nc(-c4ccc(C(F)(F)F)cc4)no3)CC2)cc1
condition met

Inhibition % of AI-2 activity under 50%? Item: CCc1ccccc1Nc1nc(-c2c(C)nc3ccccn23)cs1 condition met

Inhibition % of AI-2 activity under 50%? Item: COC(=S)NN=Cc1cc(C)ccc1O condition not met

Inhibition % of AI-2 activity under 50%? Item: NC(=O)c1ccccc1Nc1cccc(C(F)(F)F)c1 condition not met

----------
system: intracellular APEC O2 in Caco-2 cells; assay: Intracellular survival assay (cidal SMs); details: O2, Caco-2, 6 h treatment; superscript = multiple of MIC
Marks after values point to notes of the source that are not given here.
observable: SMs intracellular APEC clearance concentration

Required: SMs intracellular APEC clearance concentration, one value per molecule below.
1. COc1ccc(CCN(Cc2cc3c(cc2Cl)OCO3)CC2CCN(C)CC2)cc1
2. CCCCCCCCCCCCCCCCn1c[n+](C)c2ccccc21.[Br-]
3. CC(=O)OC(C(Br)C(=O)c1ccc([N+](=O)[O-])cc1)C(Cl)(Cl)Cl (stereo not shown)
4. CC1CCCN(CCC(=O)c2ccc(Br)cc2)C1.Cl (stereo not shown)
5. COc1cc(CNCCc2ccc(C)cc2)ccc1OCC(O)CN1CCCC1 (stereo not shown)
6. COc1cc(CNCCc2ccc3ccccc3c2)ccc1OCC(O)CN1CCCC1 (stereo not shown)
7. CCCCCCCCCCCCCCCC[n+]1ccn(CC#N)c1
8. COc1ccc(CNCc2cccc(C(F)(F)F)c2)cc1OCC(O)CN1CCCC1 (stereo not shown)

1: 200^b µM; 2: 100^d µM; 3: 100^c µM; 4: >400 µM; 5: >200 µM; 6: >200 µM; 7: 100^d µM; 8: 100^c µM

Required: SMs intracellular APEC clearance concentration, one value per molecule below.
1. CC1CCC(C(C)C)C(OC(=O)Cn2c[n+](CC(=O)OC3CC(C)CCC3C(C)C)c3ccccc32)C1.[Cl-] (stereo not shown)
2. CCN1C(=Cc2ccc3ccccc3[n+]2CC)C=Cc2ccccc21.[Cl-]

1: 100^c µM; 2: 100^c µM
